Assay: amyloid nucleation score (Sup35N fusion, yeast selection) (log enrichment); library NNK1; higher = more nucleation; inactive = no reads after selection;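 note: zero at mode of non-aggregating sequences after 7 days selection at 30°C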
metric name: amyloid nucleation score

* NTLCLHDFFHGLILWLSHQA | 1.01
* GIKFQSVGGGVVANSVR | inactive
* GGVLGSTKSLFVDPANLGGL | inactive

###

Assay: amyloid nucleation score (Sup35N fusion, yeast selection) (log enrichment); library NNK1; higher = more nucleation; inactive = no reads after selection
metric name: amyloid nucleation score

- GHPVWRCFSDGSSPLFWDYG: inactive
- VCITNNELVGVFDDEVFIAF: inactive
- MRCGAL: 0.2
- WVINFVGKTCDTIDP: inactive

###

Assay: amyloid nucleation score (Sup35N fusion, yeast selection) (log enrichment); library NNK2; higher = more nucleation; inactive = no reads after selection
metric name: amyloid nucleation score

* HLGVGFLWSVRFIYMTFGFS | inactive
* CNFSCGPKNQKNSMILWILN | inactive
* MDLYCD | inactive

###

Assay: amyloid nucleation score (Sup35N fusion, yeast selection) (log enrichment); library NNK1; higher = more nucleation; inactive = no reads after selection
metric name: amyloid nucleation score

* RSRAISIKWCIGVGHPGNWV | inactive
* SSPSMSINVYRLNKS | inactive
* LPIVGFSCFEFIMIERMRLV | inactive
* YLIWLLGFANILYHYTL | inactive

###

Experiment: amyloid nucleation score (Sup35N fusion, yeast selection) (log enrichment); library NNK2; higher = more nucleation; inactive = no reads after selection
metric name: amyloid nucleation score

• PKVLGFFK = inactive
• EKIFPLMGVKN = inactive
• SRYLSVIYYHRSNTWLRDRE = inactive

###

Assay: amyloid nucleation score (Sup35N fusion, yeast selection) (log enrichment); library NNK2; higher = more nucleation; inactive = no reads after selection
Classification field: 1 = amyloid nucleation score at or over 0.4; -1 = amyloid nucleation score under 0.4.

These recorded examples may help you get a feel for the data.
- FRQRDKRVTEMTPAERGGQ: 1
- LSFFDLIMGVRGMLQSVCGL: -1
- RAMHQDSVFVRWVEPPYCWC: -1
- SVNILDTWDKVAPTKRPLES: -1
- PELSNDQGYFVDSVKSGKVE: -1
- VLNIARVRHDKG: 1
- TIENLNLFWF: 1
- FLMEVSLTLSFLERSNVLKG: 1

Asked: In plain terms: is recorded amyloid nucleation score at least 0.4 for `LSIMHYIIYRLDFAFSWKGG` ?
Given back: -1

Asked: In plain terms: is recorded amyloid nucleation score at least 0.4 for `MTRNGDLFS` ?
Given back: 1

Asked: In plain terms: is recorded amyloid nucleation score at least 0.4 for `YHKRSPIYSVLYDLDSFK` ?
Given back: -1

Asked: In plain terms: is recorded amyloid nucleation score at least 0.4 for `RFTALADGYRFTLSLGIVSG` ?
Given back: 1

Asked: In plain terms: is recorded amyloid nucleation score at least 0.4 for `CIKALRVYFYEGFTSTR` ?
Given back: -1

Asked: In plain terms: is recorded amyloid nucleation score at least 0.4 for `LFCTFKLRAMTFTSNKSRVV` ?
Given back: 1

Asked: In plain terms: is recorded amyloid nucleation score at least 0.4 for `TARLLSPQ` ?
Given back: -1

###

Experiment: amyloid nucleation score (Sup35N fusion, yeast selection) (log enrichment); library NNK2; higher = more nucleation; inactive = no reads after selection
metric name: amyloid nucleation score

- SYVGVSNGRVVWVRVMANSK: inactive
- NRDFMCESVRNCTLALMIGS: inactive
- GGTLHWLAMDTNMVNMACIG: inactive
